system: biotinyl-Leu-oxazolone; test: self-aminoacylation, catalytic enhancement (BLO) (fold over background); higher = more active; k-Seq, kA / k0A0; sequences stand for … in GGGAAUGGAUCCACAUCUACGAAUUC…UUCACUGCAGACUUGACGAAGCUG
Fewer inactive variants are shown than the library holds.
The threshold is inclusive: self-aminoacylation of exactly 1 counts as met; values below receive not met.

(Q) Item AAGUUUGCUCAUAGUUGCAAG [Fam3.1 aminoacylation ribozyme variant] with self-aminoacylation of 1 or above?
(A) not met

(Q) Proceed to CUACUUCAUACAAUCGGUGUG [Fam1A.1 aminoacylation ribozyme variant]
(A) met

----------
tested on: biotinyl-Met-oxazolone; assay: self-aminoacylation, catalytic enhancement (BMO) (fold over background); higher = more active; k-Seq, kA / k0A0; sequences stand for … in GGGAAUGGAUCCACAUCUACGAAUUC…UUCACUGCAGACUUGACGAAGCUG
This sample holds only a part of the variants without activity.
measurement_type: self-aminoacylation
Form rule: numeric answer, no unit written next to it.

CCACACUGUAAGCAAUCGGUC [Fam1B.1 aminoacylation ribozyme variant] :: 0.953
CCACACUUCAAACAAUCGGCC [Fam1B.1 aminoacylation ribozyme variant] :: 1.96

(Q) Given the entry AUUCACUUAGGUCAUCGGAUG [Fam2.2 aminoacylation ribozyme variant] , report its measured self-aminoacylation.
(A) 0.766

(Q) Proceed to AUUACCCUGGUCAUCAAGUGC [Fam2.1 aminoacylation ribozyme variant]
(A) 0.691

(Q) Proceed to CUACGUCAAACAAUGGGUCUG [Fam1A.1 aminoacylation ribozyme variant]
(A) 1.22

(Q) Proceed to CUAGUUCAAAUAAUCGGUCUG [Fam1A.1 aminoacylation ribozyme variant]
(A) 0.872

(Q) Proceed to AUUCAGCUAGAUCAUCGGGUG [Fam2.2 aminoacylation ribozyme variant]
(A) 4.04

(Q) Proceed to AUUCACCUAGGUCACCGGGCG [Fam2.2 aminoacylation ribozyme variant]
(A) 3.66

Provenance of the data: the supplement of paper PMC9233669
